Tested on: RARb:RXRa (NR concentration 270 nM, RXRa partner concentration 90 nM)
Test: PBM binding z-score (relative to random genomic background probes); higher = stronger binding; sequences stand for … in GC…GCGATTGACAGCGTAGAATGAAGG
Classes are defined on PBM binding z-score with ranges low bracket = under 0.9, middle bracket = from 0.9 up to 4, high bracket = 4 and over

Reference set, count: 5
ACTATTAGTTGCCTTAGGGCAACCGATACGACGC; low bracket
CCGAGTAGGATATGGGGCATTCAGGCAACGGTGA; low bracket
TAGCCTAGGTCAGATAGGGCCAGTATACGCTATA; middle bracket
TCGAGTAGGTTAGGTGCATTCAGAATGGCGTCGA; low bracket
ATCGAAAGGTCGACGAGGTGGGTATACACCGTTT; middle bracket

Request: Which category fits this record: `TCTCGGAGGACTCGAAAGGTCAGAGCTCGACATC`
Result: middle bracket

Request: Which category fits this record: `CAAACTAGGTCAAGGGCAAAGTCGGTTTGTGCCA`
Result: high bracket

Request: Which category fits this record: `ATATCTAGGTAAAGTTCAGTGAAAGATCGATAGA`
Result: middle bracket

Request: Which category fits this record: `GATCGGAGGACAAGGTCAGAGCTTTGTCCGTAGA`
Result: middle bracket

Request: Which category fits this record: `TCATATAGGTAATACAGTTGAAAGTCGGCATCTA`
Result: low bracket

----------
System: RARb:RXRa (NR concentration 270 nM, RXRa partner concentration 90 nM)
Assay: PBM binding z-score (relative to random genomic background probes); higher = stronger binding; sequences stand for … in GC…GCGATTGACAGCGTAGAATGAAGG
PBM binding z-score vs 4: at or above is condition met, below is condition not met.

Reference set, count: 3
ATAGGTAGGTTAAGGGTCATTCAGGTTGGTTCGC; condition not met
AGAATGAGGTTATTAAGATAAGGGAATTGCGGTC; condition not met
TCTGGTAGGTCAACGATGGTCAGCTAATCTGCTA; condition met

From here, focus on the item given below.
Request: Reported PBM binding z-score at or above 4? `GCTGCTAGGTCAGGTTGGCCAGCTAACGGGTACG`
Result: condition not met

----------
Items are presented alongside their recorded PBM binding z-score.
Tested on: LXRb:RXRa (NR concentration 270 nM, RXRa partner concentration 90 nM)
Experiment: PBM binding z-score (relative to random genomic background probes); higher = stronger binding; sequences stand for … in GC…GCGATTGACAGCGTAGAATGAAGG
Just the number, please, no unit attached.

TAGCCTAGGTCATTCGGCCAGTATAGTACGCATC; 2.52

Request: Form field: reported PBM binding z-score of `CGTCCAAGGTCATAGGAGGTCAGTGCAGACAGAT`
Result: 6.24

Request: Form field: reported PBM binding z-score of `CTACCACGGTGAACAAGGTCGTTGATTACTATTC`
Result: 1.4

Request: Form field: reported PBM binding z-score of `CCGAGTAGGTGATGGGGCATTCAGGCAACGGTGA`
Result: -0.326

Request: Form field: reported PBM binding z-score of `TCGAGTAGGTTAGTCGGGGCATTCAGCCAACATA`
Result: 0.294

Request: Form field: reported PBM binding z-score of `CCTGCTAGGTCAATGGTCAGCTATAGCAGCTCGC`
Result: 1.44

Request: Form field: reported PBM binding z-score of `ACTATTAGTTGAGACGAGGGCAACGGATAGGTTG`
Result: 0.0625

Request: Form field: reported PBM binding z-score of `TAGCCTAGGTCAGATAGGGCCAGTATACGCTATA`
Result: 0.697

Request: Form field: reported PBM binding z-score of `TCTAGTTGGTAAAAGGTCACACACTCGAAATGCG`
Result: 5.25

Numbers sourced from the supplement of paper PMC6555819.
